meta.source: patent US9586959B2

Below: a set of entries, each annotated with reported solubility at 1 h.
Experiment: Solubility in artificial gastrointestinal tract solution
Format: physicochemical
Conditions: artificial gastrointestinal tract solution, fassgf or other biorelevant, thermodynamic from solid; first solution pH 1.2, 2 mg/mL sample, 37° C. 1 hour
Give the value, in units of µg/mL, as a plain number.

Cc1nc2c3cc(Cl)cnc3nc(N3CCNCC3)n2n1 [Compound 32] | 1350
Clc1cnc2nc(N3CCNCC3)c3nncn3c2c1 [Compound 7] | 1370

Please examine the following record next.
Supply solubility at 1 h value. Item: CNC1CN(c2nc3ncc(Br)cc3n3cnnc23)C1 [Compound 24]
1690

* * *

System: histamine-induced mast cell migration (trachea)
Test: Histamine-induced mast cell migration
Assay type: in vivo, Balb/c mice
Conditions: 20 mg/kg oral, 0.1 M histamine aerosol, 2 days
ATTRIBUTE MEASURED: Mast cell migration (% change from control group)

Example cases with answers are listed next.
CN1CCN(c2nc3ncc(Cl)cc3n3cnnc23)CC1 | 70.3^1%
CNC1CN(c2nc3ncc(Br)cc3n3cnnc23)C1 | 60.0^1%
CNC1CN(c2nc3ncc(C#N)cc3n3cnnc23)C1 | 48.4^1%

Supply Mast cell migration (% change from control group) value. Item: `Clc1cnc2nc(N3CCNCC3)c3nncn3c2c1`
43.1^1%

Supply Mast cell migration (% change from control group) value. Item: CN1CCN(c2nc3ccc(Cl)cc3n3cnnc23)CC1 [reference compound]
23.1^1%

* * *

Experiment: Metabolic stability in human microsome
Conditions: human microsome 1 mg/mL, 5 μM compound, 1 mM NADPH
Classify: 1 when Metabolic stability (CLh. int), Human is strictly less than 2000 µL/min/mg; -1 when Metabolic stability (CLh. int), Human is not.

Answered cases to consult:
CNC1CN(c2nc3ncc(C#N)cc3n3cnnc23)C1 [Compound 25] | -1
Cc1nc2c3cc(Cl)cnc3nc(N3CCN(C)CC3)n2n1 [Compound 31] | -1
Clc1cc2c(nc1Cl)nc(N1CCNCC1)c1nncn12 [Compound 62] | -1
CNC1CN(c2nc3ncc(Br)c(C)c3n3cnnc23)C1 [Compound 65] | -1
CNC1CN(c2nc3ncc(Cl)cc3n3ccnc23)C1 [Compound 88] | -1
CN1CCN(c2nc3ncc(Cl)cc3n3cnnc23)CC1 [Compound 4] | -1

Quick check: Metabolic stability (CLh. int), Human of CNC1CN(c2nc3ncc(Br)cc3c3ccnn23)C1 [Compound 110] under 2000 µL/min/mg?
-1

Quick check: Metabolic stability (CLh. int), Human of CNC1CN(c2nc3nc(Cl)c(Cl)cc3n3cnnc23)C1 [Compound 27] under 2000 µL/min/mg?
1

* * *

Assay: Metabolic stability in mouse microsome
Conditions: mouse microsome 1 mg/mL, 5 μM compound, 1 mM NADPH
ATTRIBUTE MEASURED: Metabolic stability (CLh. int), Mouse (µL/min/mg)
Give the value, in units of µL/min/mg, as a plain number.

Example cases with answers are listed next.
CN1CCN(c2nc3ncc(Cl)cc3c3nc(C4CC4)nn23)CC1 | 14900
CN1CCN(c2nc3ncc(Cl)cc3n3cnnc23)CC1 | 10220
CNC1CN(c2nc3ncc(Br)cc3n3nnnc23)C1.Cl | 14040

Supply Metabolic stability (CLh. int), Mouse value. Item: CN1CCN(c2nc3ccc(Cl)cc3n3cnnc23)CC1 [reference compound]
111630

Supply Metabolic stability (CLh. int), Mouse value. Item: `CNC1CN(c2nc3ncc(Cl)cc3n3ccnc23)C1`
11770
